Data provenance: patent US3951979A

assayNotes: Acute toxicity, LD50, oral administration
particulars: in vivo, mouse
Method: 1. Acute toxicity -- LD50 -- Oral administration This was determined upon the mouse by oral administration, the LD50 value being calculated by the method of B. Behrens & C. Karber (Arch F. Exp. Patho. Pharm., volume 177, page 379 (1935) )
outcomeMeasure: LD50

[[record]]
compound = "C#CC1(OCC(O)CN2CCN(c3cccc(C(F)(F)F)c3)CC2)CCCCC1 (centres unmarked) [Compound No. 11]"
val = "783 mg/kg"

[[record]]
compound = "C#CC(C)(CC)OCC(O)CN1CCN(c2ccccc2OC)CC1 (centres unmarked) [compound 18]"
val = "> 200 mg/kg"

[[record]]
compound = "C#CC1(OCC(O)CN2CCN(c3ccc(Cl)cc3)CC2)CCCCC1 (centres unmarked) [compound 8]"
val = "> 600 mg/kg"

[[record]]
compound = "C#CC1(OCC(O)CN2CCN(c3ccccc3)CC2)CCCCC1 (centres unmarked) [Compound No. 2]"
val = "> 600 mg/kg"

[[record]]
compound = "C#CC(C)(CC)OCC(O)CN1CCN(c2ccccc2)CC1 (centres unmarked) [Compound No. 3]"
val = "> 600 mg/kg"

